Test system: HSV-1 (herpes simplex type 1)
Assay: microbe, parasite or virus in culture
Text: Compounds 25 and 26 are (S)-methanocarba-T and (±)-(carba-T), respectively. (±)-carba-T was kindly provided by Dr. Y. Fulmer Shealy, Southern Research Institute, Birmingham, Ala. [drawing 5]
List of SI (CC50/EC50) values.

Compound	Target	SI (CC50/EC50)
Nc1ccn([C@@]23C[C@H](O)[C@@H](CO)[C@@H]2C3)c(=O)n1 [(S)-DMC-C, reference compound]	HSV-1 (herpes simplex type 1)	< 3.7
Cc1cn([C@H]2C[C@H](O)[C@]3(CO)C[C@H]23)c(=O)[nH]c1=O [Compound 20]	HSV-1 (herpes simplex type 1)	> 2000
O=c1ccn([C@@]23C[C@H](O)[C@@H](CO)[C@@H]2C3)c(=O)[nH]1 [(S)-DMC-U, reference compound]	HSV-1 (herpes simplex type 1)	< 3.0
